- System name: DDB1DB/DCAF15 and RBM39 R1R2 complex (Homo sapiens, UniProt Q14498+Q66K64)
- Construct: Amino acids 150 to 331 of RBM39 were cloned into pGEX4T3; GST (from vector pGEX4T3); TEV cleavage site (N); RBM39 R1R2: E. coli (pGEX4T3)
- Sequence (Q66K64 whole entry, the tested form may be a part): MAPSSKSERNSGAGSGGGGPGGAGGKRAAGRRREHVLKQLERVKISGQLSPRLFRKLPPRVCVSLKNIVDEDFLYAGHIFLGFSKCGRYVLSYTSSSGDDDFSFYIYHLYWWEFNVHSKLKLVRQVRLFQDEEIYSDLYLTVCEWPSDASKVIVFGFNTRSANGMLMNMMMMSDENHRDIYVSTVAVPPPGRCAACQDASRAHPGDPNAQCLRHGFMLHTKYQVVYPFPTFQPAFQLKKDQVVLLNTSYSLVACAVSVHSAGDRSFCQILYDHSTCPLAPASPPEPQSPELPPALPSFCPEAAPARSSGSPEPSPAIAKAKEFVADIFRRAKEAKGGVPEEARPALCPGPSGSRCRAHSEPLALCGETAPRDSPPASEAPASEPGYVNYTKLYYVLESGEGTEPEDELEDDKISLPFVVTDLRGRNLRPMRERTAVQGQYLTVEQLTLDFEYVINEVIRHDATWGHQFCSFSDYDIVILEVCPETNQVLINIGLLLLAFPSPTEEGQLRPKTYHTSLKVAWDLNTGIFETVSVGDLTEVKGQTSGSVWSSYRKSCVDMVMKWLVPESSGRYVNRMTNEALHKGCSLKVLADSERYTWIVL
- Sequence (Q14498 150-331): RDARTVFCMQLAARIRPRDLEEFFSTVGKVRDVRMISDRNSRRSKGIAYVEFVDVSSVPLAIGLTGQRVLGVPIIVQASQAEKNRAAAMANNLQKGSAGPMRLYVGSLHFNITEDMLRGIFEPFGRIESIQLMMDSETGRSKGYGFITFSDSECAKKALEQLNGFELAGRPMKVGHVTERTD
- Sequence (Q16531 with tags, fused parts or gaps DEL396-708 partner): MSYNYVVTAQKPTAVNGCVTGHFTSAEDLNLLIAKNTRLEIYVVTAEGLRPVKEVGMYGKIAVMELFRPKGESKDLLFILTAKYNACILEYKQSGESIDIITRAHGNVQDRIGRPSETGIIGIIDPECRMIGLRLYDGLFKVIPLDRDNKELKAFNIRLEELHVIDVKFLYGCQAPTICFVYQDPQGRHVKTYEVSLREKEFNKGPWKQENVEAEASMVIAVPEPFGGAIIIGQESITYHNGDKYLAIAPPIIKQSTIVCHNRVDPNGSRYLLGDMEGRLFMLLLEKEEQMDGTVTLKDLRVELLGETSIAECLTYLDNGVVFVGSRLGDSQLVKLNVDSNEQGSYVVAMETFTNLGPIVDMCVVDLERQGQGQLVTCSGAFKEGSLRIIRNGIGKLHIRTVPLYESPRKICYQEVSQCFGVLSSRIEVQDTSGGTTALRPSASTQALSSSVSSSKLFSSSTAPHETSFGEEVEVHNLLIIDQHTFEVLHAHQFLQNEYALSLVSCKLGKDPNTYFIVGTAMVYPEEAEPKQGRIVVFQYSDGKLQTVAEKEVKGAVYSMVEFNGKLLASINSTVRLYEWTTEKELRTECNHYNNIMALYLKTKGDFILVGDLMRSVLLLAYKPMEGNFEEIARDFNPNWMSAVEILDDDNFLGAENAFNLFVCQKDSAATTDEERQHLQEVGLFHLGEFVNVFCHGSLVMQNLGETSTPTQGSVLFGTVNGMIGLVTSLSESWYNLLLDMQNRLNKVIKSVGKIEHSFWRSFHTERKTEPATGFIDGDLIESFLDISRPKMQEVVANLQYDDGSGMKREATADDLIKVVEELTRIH
- Assay summary: DCAF15 RBM39 Complex Formation Assay (FRET)
- Measurement parameters: FRET ratio Em 665/Em 615, incubated overnight at 4° C.
IC50: recorded values

>>> assay_value("Cc1ccc(NS(=O)(=O)c2cnn(CCS(C)(=O)=O)c2)c2[nH]cc(C#N)c12 [Compound 67]")
"< 0.25 µM"
>>> assay_value("CC1(Cn2cc(S(=O)(=O)Nc3cccc4c(Cl)c[nH]c34)cn2)CS(=O)(=O)C1 [Compound 45]")
"< 0.25 µM"
>>> assay_value("N#Cc1c[nH]c2c(NS(=O)(=O)c3cnn(CF)c3N)cccc12 [Compound 312]")
"< 0.25 µM"
>>> assay_value("CCn1cc(S(=O)(=O)Nc2ccc(C)c3c(C#N)c[nH]c23)c(N)n1 [Compound 290]")
"< 0.25 µM"

# IC50 (compound: N#Cc1c[nH]c2c(NS(=O)(=O)c3cnn([C@@H](CO)CF)c3)ccc(Cl)c12 [Compound 238] ) is < 0.25 µM

For this compound ( CC(C)(O)Cn1ncc(S(=O)(=O)Nc2ccc(F)c3c(C#N)c[nH]c23)c1Cl [Compound 280] ), measured IC50 is < 0.25 µM

# compound CC(C)(CO)n1ncc(S(=O)(=O)Nc2ccc(F)c3c(C#N)c[nH]c23)c1Cl [Compound 245] ; its IC50 = < 0.25 µM

Source listed as patent US20250368627A1.
